Target: Axl (Homo sapiens, UniProt P30530)
Construct: endogenous in cells; host or cells: HeLa cells
Sequence (P30530 26-894): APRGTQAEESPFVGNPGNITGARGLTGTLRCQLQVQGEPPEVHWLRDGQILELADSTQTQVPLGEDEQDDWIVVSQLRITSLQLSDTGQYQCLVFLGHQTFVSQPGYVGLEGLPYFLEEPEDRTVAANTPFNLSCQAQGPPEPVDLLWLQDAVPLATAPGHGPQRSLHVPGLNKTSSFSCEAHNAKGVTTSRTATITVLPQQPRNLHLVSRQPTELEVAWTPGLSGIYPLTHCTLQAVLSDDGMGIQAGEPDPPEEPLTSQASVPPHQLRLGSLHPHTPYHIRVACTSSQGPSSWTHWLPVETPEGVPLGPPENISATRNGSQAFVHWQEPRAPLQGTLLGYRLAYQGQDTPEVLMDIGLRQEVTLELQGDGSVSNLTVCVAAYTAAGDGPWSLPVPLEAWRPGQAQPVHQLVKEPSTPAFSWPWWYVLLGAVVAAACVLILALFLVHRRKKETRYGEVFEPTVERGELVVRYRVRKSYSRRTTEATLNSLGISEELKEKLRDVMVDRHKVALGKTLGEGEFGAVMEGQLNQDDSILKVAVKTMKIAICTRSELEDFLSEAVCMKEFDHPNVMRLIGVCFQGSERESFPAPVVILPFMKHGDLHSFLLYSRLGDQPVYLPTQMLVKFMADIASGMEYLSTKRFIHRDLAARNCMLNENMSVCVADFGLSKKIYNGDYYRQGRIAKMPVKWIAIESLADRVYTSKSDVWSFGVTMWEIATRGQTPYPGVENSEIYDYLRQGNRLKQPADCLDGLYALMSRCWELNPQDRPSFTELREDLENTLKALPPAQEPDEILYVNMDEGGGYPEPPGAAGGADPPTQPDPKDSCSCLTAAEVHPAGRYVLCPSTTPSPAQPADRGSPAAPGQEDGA
Assay: Phospho-Akt in-cell Western assay (inhibition of Axl activity)
Assay type: cell-based
Details: inhibition of Axl activity, Table 1
Protocol: The compounds of the invention were tested in the following assay for their ability to inhibit Axl activity. Phospho-Akt in-Cell Western Assay […]
pIC50: −log10 of the molar value.
Measured pIC50 by item

These solved cases illustrate the format of a correct answer.
>  <Smiles Repr>
CC(C)(C)Oc1ccc(C(=O)n2nc(Nc3ccc(OCCN4CCCCC4)cc3)nc2N)cc1

>  <Assay Result>
> 6.00

$$$$
>  <Smiles Repr>
Nc1nc(Nc2ccc3c(c2)OCCO3)nn1C(=O)c1ccc(OCCN2CCOCC2)cc1

>  <Assay Result>
5.00 to 6.00

$$$$
>  <Smiles Repr>
COC(=O)COc1ccc(Nc2nc(N)n(C(=O)c3ccc(OC(C)C)cc3)n2)cc1

>  <Assay Result>
5.00 to 6.00

$$$$
>  <Smiles Repr>
Nc1nc(Nc2ccc3c(c2)OCCO3)nn1C(=O)c1ccc(OC2CCCC2)cc1

>  <Assay Result>
< 4.70

$$$$
>  <Smiles Repr>
CCOc1ccc(Nc2nc(N)n(C(=O)c3ccc(OC(C)C)cc3)n2)cc1

>  <Assay Result>
5.00 to 6.00

$$$$
>  <Smiles Repr>
Cc1cccc(C(=O)n2nc(Nc3cccc(OCC(=O)OC(C)(C)C)c3)nc2N)c1

>  <Assay Result>
5.00 to 6.00

$$$$
>  <Smiles Repr>
Cc1ccc(C(=O)n2nc(Nc3ccc(OC(C)C)cc3)nc2N)cc1

>  <Assay Result>
> 6.00

$$$$

From here, focus on the item given below.
Assay Axl (Homo sapiens, UniProt P30530), sample `CS(=O)(=O)c1ccc(C(=O)n2nc(Nc3ccc4c(c3)OCCO4)nc2N)cc1` , pIC50 read: < 4.70

###

Target: Axl (Homo sapiens)
Construct: endogenous in cells; host or cells: HeLa cells
Assay: Phospho-Akt in-cell Western assay (inhibition of Axl activity)
Assay type: cell-based
Conditions: inhibition of Axl activity, Table 1
Readout Name: IC50

>  <Smiles Repr>
Cc1cccc(C(=O)n2nc(Nc3cccc(OCC(=O)NC4CCCCC4)c3)nc2N)c1

>  <Study System>
Axl (Homo sapiens)

>  <Readout Name>
IC50

>  <Assay Result>
> 20 µM

$$$$
>  <Smiles Repr>
Cc1ccc(C(=O)n2nc(Nc3ccccc3F)nc2N)cc1

>  <Study System>
Axl (Homo sapiens)

>  <Readout Name>
IC50

>  <Assay Result>
> 20 µM

$$$$
>  <Smiles Repr>
CC(C)Oc1ccc(C(=O)n2nc(Nc3cccc(O)c3)nc2N)cc1

>  <Study System>
Axl (Homo sapiens)

>  <Readout Name>
IC50

>  <Assay Result>
1 to 10 µM

$$$$
>  <Smiles Repr>
COC(=O)COc1ccc(C(=O)n2nc(Nc3ccc4c(c3)OCCO4)nc2N)cc1

>  <Study System>
Axl (Homo sapiens)

>  <Readout Name>
IC50

>  <Assay Result>
1 to 10 µM

$$$$

The recorded IC50 for `Nc1nc(Nc2ccc(N3CCOCC3)cc2)nn1C(=O)c1cccc(O)c1` is 1 to 10 µM

###

Structures can show the parent of a compound that is named as a salt.
Measured melting point by item

These solved cases illustrate the format of a correct answer.
>  <Compound>
Cc1ccc(C(=O)n2nc(Nc3cccc(OCC#N)c3)nc2N)cc1 [(Ia-5)]

>  <melting point>
236 to 241 °C

$$$$
>  <Compound>
Nc1nc(Nc2cccc(OCCN3CCOCC3)c2)nn1C(=O)c1ccccc1 (as salt: salt) [(Ia-26)]

>  <melting point>
236.6 to 242.1 °C

$$$$
>  <Compound>
CC(C)Oc1ccc(C(=O)n2nc(Nc3ccc(OCC#N)cc3)nc2N)cc1 [(Ia-12)]

>  <melting point>
182.9 to 186.1 °C

$$$$
>  <Compound>
CC(C)Oc1ccc(C(=O)n2nc(Nc3ccc(OCc4ccccc4)cc3)nc2N)cc1 [(Ia-10)]

>  <melting point>
79 to 81 °C

$$$$
>  <Compound>
Cc1ccccc1C(=O)n1nc(Nc2cccc(OCC#N)c2)nc1N [(Ia-8)]

>  <melting point>
204.5 to 207.9 °C

$$$$
>  <Compound>
CC(C)Oc1ccc(C(=O)n2nc(Nc3cccc(OCCN4CCOCC4)c3)nc2N)cc1 [(Ia-22)]

>  <melting point>
152 to 153.7 °C

$$$$

The recorded melting point for CC(C)Oc1ccc(C(=O)n2nc(Nc3cccc(OCCC4OCCO4)c3)nc2N)cc1 [(Ia-24)] is 144.4 to 145.4 °C

The recorded melting point for Cc1cccc(C(=O)n2nc(Nc3cccc(OCC(=O)N4CCN(C(=O)OC(C)(C)C)CC4)c3)nc2N)c1 [(Ia-19)] is 206 to 208 °C

The recorded melting point for Nc1nc(Nc2ccccc2)nn1C(=O)/C=C/c1ccco1 [compound 141] is 212 to 216 °C
